# measured on: glucagon receptor (UniProt P47871 26-477, limits assumed)
# Sequence (P47871 26-477 limits assumed): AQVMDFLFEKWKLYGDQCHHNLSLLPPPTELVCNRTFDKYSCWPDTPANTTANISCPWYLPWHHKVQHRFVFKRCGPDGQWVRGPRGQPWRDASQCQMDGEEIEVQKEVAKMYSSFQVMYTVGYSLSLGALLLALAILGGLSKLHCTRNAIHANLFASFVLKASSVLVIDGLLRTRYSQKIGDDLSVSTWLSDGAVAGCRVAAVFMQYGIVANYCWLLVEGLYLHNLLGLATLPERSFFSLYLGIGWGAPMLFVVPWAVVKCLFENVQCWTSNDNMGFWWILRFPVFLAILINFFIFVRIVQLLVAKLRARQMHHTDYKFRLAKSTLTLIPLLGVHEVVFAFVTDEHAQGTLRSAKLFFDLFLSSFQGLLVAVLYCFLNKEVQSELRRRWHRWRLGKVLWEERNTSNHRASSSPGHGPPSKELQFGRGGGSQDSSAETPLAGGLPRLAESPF
# method: cell-based or functional assay
Numbered stars: 1 amine (or outer) side, 2 acyl side, 3 side chain; on linkers, the order of the positions; unused ones are H or OH. Square brackets hold non-standard residues; d marks the D form. Side chains are listed from the residue outwards. Ends that are not written are not given here. * marks the point of attachment. γGlu = O=C(O)[C@H](CCC(=O)[*:2])N[*:1]; Palmitoyl = CCCCCCCCCCCCCCCC(=O)*; dthioAla = not defined here; thioAla = not defined here; Sar = CNCC(=O)O
parameter measured: EC50 at Glucagon Receptor (cAMP luciferase reporter, HEK293) (pM)
Field format: number, assumed pM, no unit text.

binder | measure unit | numeric result
H[Sar]QGTFTSDK([γGlu-Palmitoyl])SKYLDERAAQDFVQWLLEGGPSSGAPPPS-NH2 [peptide of SEQ ID NO: 28] | pM | 22
Ac-QGQGTFTSDK([γGlu-Palmitoyl])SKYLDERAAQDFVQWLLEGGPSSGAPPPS-NH2 [peptide of SEQ ID NO: 34] | pM | 163
Ac-[thioAla]AQGTFTSDK([γGlu-Palmitoyl])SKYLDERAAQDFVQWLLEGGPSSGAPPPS-NH2 (reading uncertain) [peptide of SEQ ID NO: 21] | pM | 6

Item: XAQGTFTSDKSKYLDERAAQDFVQWLLEGGPSSGAPPPS (position 1 His; position 2 β-Ala; C-terminal amide; other non-coded or acylated residues as in the sequence listing) [peptide of SEQ ID NO: 26] | EC50 at Glucagon Receptor (cAMP luciferase reporter, HEK293): 95

Item: Ac-[dthioAla]AQGTFTSDK([γGlu-Palmitoyl])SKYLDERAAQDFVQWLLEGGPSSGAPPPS-NH2 (reading uncertain) [peptide of SEQ ID NO: 17] | EC50 at Glucagon Receptor (cAMP luciferase reporter, HEK293): 8
